- targetUnderTest: recombinant human NF-kappaB-inducing kinase (NIK/MAP3K14) (Homo sapiens)
- protocolDescription: Biological Assay B: inhibition of auto-phosphorylation of recombinant human NIK/MAP3K14 (AlphaScreen), performed at 2 locations
- Format: biochemical
- testConditions: location 2; AlphaScreen auto-phosphorylation; averaged values; read-out: Assay B location 2 IC50
valueType: IC50 (nM)

>>> quantitativeresult("COc1ccc(C#N)cc1Nc1nccc(-c2cnc3c(c2)C(C)(CO)CN3)n1 (stereo not shown) [Compound 190]")
2.2

P: COc1cc(C(=O)N2CCCCC2)ccc1Nc1nccc(-c2cnc3c(c2)C(C)(CO)CN3)n1 (stereo not shown) [Compound 139]
Q: COc1cc(Nc2nccc(-c3cnc4c(c3)C(C)(CO)CN4)n2)cc(OC)c1OC (stereo not shown) [Compound 46]
R: COc1cc(C(=O)N2CCN(C)CC2)ccc1Nc1nccc(-c2cnc3c(c2)C(C)(CO)CN3)n1 (stereo not shown) [Compound 143]
List from greatest to least IC50. // ordering of labels required in reply
R, P, Q

---

- targetUnderTest: recombinant human NF-kappaB-inducing kinase (NIK/MAP3K14) (Homo sapiens, UniProt Q99558)
- Sequence (Q99558 whole entry): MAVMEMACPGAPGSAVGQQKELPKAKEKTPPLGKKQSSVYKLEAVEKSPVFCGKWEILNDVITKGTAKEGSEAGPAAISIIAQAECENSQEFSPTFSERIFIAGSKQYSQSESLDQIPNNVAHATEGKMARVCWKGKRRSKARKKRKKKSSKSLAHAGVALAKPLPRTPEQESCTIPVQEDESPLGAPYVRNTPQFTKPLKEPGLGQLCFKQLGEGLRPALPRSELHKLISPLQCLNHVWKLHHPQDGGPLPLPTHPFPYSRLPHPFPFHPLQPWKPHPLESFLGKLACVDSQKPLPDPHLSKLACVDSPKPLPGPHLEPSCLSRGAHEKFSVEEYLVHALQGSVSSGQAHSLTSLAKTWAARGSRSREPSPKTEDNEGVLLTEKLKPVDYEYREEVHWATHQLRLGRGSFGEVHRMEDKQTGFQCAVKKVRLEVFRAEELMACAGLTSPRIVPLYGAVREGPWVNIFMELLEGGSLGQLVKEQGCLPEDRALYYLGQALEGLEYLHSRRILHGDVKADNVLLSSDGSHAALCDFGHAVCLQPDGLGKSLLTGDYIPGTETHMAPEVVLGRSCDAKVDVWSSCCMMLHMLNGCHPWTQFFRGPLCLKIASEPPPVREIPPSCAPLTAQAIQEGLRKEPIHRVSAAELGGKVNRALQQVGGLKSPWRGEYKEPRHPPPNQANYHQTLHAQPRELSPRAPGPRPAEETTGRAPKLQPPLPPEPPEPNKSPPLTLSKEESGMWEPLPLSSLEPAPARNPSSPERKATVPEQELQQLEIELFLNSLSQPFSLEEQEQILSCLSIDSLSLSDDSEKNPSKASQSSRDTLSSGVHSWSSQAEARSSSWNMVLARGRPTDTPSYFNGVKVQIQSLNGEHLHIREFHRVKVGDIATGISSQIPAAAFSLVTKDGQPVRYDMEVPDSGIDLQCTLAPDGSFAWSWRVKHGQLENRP
- protocolDescription: Biological Assay B: inhibition of auto-phosphorylation of recombinant human NIK/MAP3K14 (AlphaScreen), performed at 2 locations
- Format: biochemical
- testConditions: location 2; AlphaScreen auto-phosphorylation; averaged values; read-out: Assay B location 2 IC50
pIC50: −log10 of the molar value.
valueType: pIC50

>>> quantitativeresult("COc1cc(N2CC(O)C2)c(Cl)cc1Nc1nccc(-c2cnc3c(c2)C(C)(CO)CN3)n1 (stereo not shown)")
8.77

P: CCN1CCN(c2cc(OC)c(Nc3nccc(-c4cnc5c(c4)C(C)(CO)CN5)n3)cc2C)CC1 (stereo not shown)
Q: CN(C)CCOc1cc(N2CCOCC2)c(Cl)cc1Nc1nccc(-c2cnc3c(c2)C(C)(CO)CN3)n1 (single isomer, unassigned) [Compound 274]
R: COc1cc(C(=O)N2CCCCCC2)ccc1Nc1nccc(-c2cnc3c(c2)C(C)(CO)CN3)n1 (stereo not shown)
List from greatest to least pIC50. // ordering of labels required in reply
P, R, Q

---

- targetUnderTest: recombinant human NF-kappaB-inducing kinase (NIK/MAP3K14) (Homo sapiens, UniProt Q99558)
- protocolDescription: Biological Assay B: inhibition of auto-phosphorylation of recombinant human NIK/MAP3K14 (AlphaScreen), performed at 2 locations
- Format: biochemical
- testConditions: location 1; AlphaScreen auto-phosphorylation; averaged values; read-out: Assay B location 1 IC50
pIC50: −log10 of the molar value.
valueType: pIC50

Below, each entry is followed by its recorded pIC50 result.
>>> quantitativeresult("CCOC1CN(c2cc(OC)c(Nc3nccc(-c4cnc5c(c4)C(C)(CO)CN5)n3)cc2Cl)C1 (stereo not shown)")
7.92
>>> quantitativeresult("COc1cc(N2CCOCC2)c(F)cc1Nc1nccc(-c2cnc3c(c2)C(C)(CO)CN3)n1 (single isomer, unassigned) [Compound 254]")
8.19
>>> quantitativeresult("COc1cc(CN2CCOCC2)c(Cl)cc1Nc1nccc(-c2cnc3c(c2)C(C)(CO)CN3)n1 (stereo not shown)")
8.10

a: COc1cc(N2CC(C)(C)C2)c(Cl)cc1Nc1nccc(-c2cnc3c(c2)C(C)(CO)CN3)n1 (stereo not shown)
b: CN(C)CCOc1cc(N2CCOCC2)c(F)cc1Nc1nccc(-c2cnc3c(c2)C(C)(CO)CN3)n1 (single isomer, unassigned) [Compound 286]
c: Cc1cc(N2CCOCC2)c(F)cc1Nc1nccc(-c2cnc3c(c2)C(C)(CO)CN3)n1 (single isomer, unassigned) [Compound 256]
d: COc1cc(N2CCOCC2)c(F)cc1Nc1nccc(-c2cnc3c(c2)C(C)(C)CN3)n1
List from greatest to least pIC50. // ordering of labels required in reply
a, d, c, b

---

- targetUnderTest: recombinant human NF-kappaB-inducing kinase (NIK/MAP3K14) (Homo sapiens)
- protocolDescription: Biological Assay B: inhibition of auto-phosphorylation of recombinant human NIK/MAP3K14 (AlphaScreen), performed at 2 locations
- Type: biochemical
- testConditions: location 1; AlphaScreen auto-phosphorylation; averaged values; read-out: Assay B location 1 IC50
valueType: IC50 (nM)

>>> quantitativeresult("COc1cc(Cl)c(C)c(Nc2nccc(-c3cnc4c(c3)C(C)(CO)CN4)n2)c1 (centres unmarked) [Compound 230]")
7.4

1: COc1cc(C(=O)N2CCCCC2)ccc1Nc1nccc(-c2cnc3c(c2)C(C)(CO)CN3)n1 (centres unmarked) [Compound 139]
2: Cc1cc(N2CC3(CCOCC3)C2)c(F)cc1Nc1nccc(-c2cnc3c(c2)C(C)(CO)CN3)n1 (centres unmarked) [Compound 281]
Lower IC50: 1 or 2 ? Your answer should be the label of the entry you select.
1
(1: 6.9 nM, 2: 15.9 nM)

I: COc1cccc(Nc2nccc(-c3cnc4c(c3)C(C)(CO)CN4)n2)c1Cl (centres unmarked) [Compound 225]
II: COc1cc(N2CC3(CCOC3)C2)c(Cl)cc1Nc1nccc(-c2cnc3c(c2)C(C)(CO)CN3)n1 (centres unmarked) [Compound 284]
Given I and II , report the one with the higher recorded IC50. Your answer should be the label of the entry you select.
I
(I: 13.2 nM, II: 7.4 nM)

---

valueType: melting point

Below, each entry is followed by its recorded melting point result.
>>> result("COc1cc(N2CC3(CCOCC3)C2)c(Cl)cc1Nc1ncc(Cl)c(-c2cnc3c(c2)C(C)(CO)CN3)n1 (single isomer, unassigned)")
"> 250 °C"
>>> result("COc1cc(C(=O)NC2CCOCC2)ccc1Nc1ncc(F)c(-c2cnc3c(c2)C(C)(CO)CN3)n1 (single isomer, unassigned)")
"> 250 °C"
>>> result("COc1cc(N2CCC(O)CC2)c(Cl)cc1Nc1nccc(-c2cnc3c(c2)C(C)(CO)CN3)n1 (single isomer, unassigned)")
"> 260 °C"
>>> result("COc1cc(N2CC3(CCOCC3)C2)c(Cl)cc1Nc1ncc(F)c(-c2cnc3c(c2)C(C)(CO)CN3)n1 (centres unmarked)")
"> 250 °C"

Could you share which melting point value was measured for COc1cc(C(=O)NC2CCOCC2)ccc1Nc1ncc(Cl)c(-c2cnc3c(c2)C(C)(CO)CN3)n1 (single isomer, unassigned) ?
> 250 °C

---

- targetUnderTest: recombinant human NF-kappaB-inducing kinase (NIK/MAP3K14) (Homo sapiens)
- protocolDescription: Biological Assay A: inhibition of recombinant human NF-kappaB-inducing kinase (NIK/MAP3K14) activity (MBP phosphorylation, Mesoscale)
- testConditions: MSD MBP; averaged over all measurements on all batches; read-out: Assay A Biochemical (MSD MBP) IC50
valueType: IC50 (nM)

1: CC(=O)NC(C)c1cccc(Nc2nccc(-c3cnc4c(c3)C(C)(C)CN4)n2)c1 (stereo not drawn)
2: Cc1cc(C(=O)N2CCC(CCO)CC2)ccc1Nc1nccc(-c2cnc3c(c2)C(C)(C)CN3)n1
3: COc1c(Nc2nccc(-c3cnc4c(c3)C(C)(C)CN4)n2)cccc1C(=O)N1CCC(O)CC1
4: Cc1cc(C(=O)NC2CCOCC2)ccc1Nc1nccc(-c2cnc3c(c2)C(C)(CC#N)CN3)n1 (stereo not drawn)
5: Cc1cc(C(=O)NC2CN(C)C2)ccc1Nc1nccc(-c2cnc3c(c2)C(C)(CO)CN3)n1 (stereo not drawn)
Quick favor: sort the compounds up above by IC50, largest first. // ordering of labels required in reply
3, 5, 1, 4, 2

a: Cc1cc(C(=O)NC2CCOCC2)ccc1Nc1nccc(-c2cnc3c(c2)C(C)(CCC#N)CN3)n1 (stereo not drawn)
b: COc1cc(C(=O)NC2CCN(C)CC2)ccc1Nc1nccc(-c2cnc3c(c2)C(C)(C)CN3)n1
Given a and b , report the one with the higher recorded IC50. Your answer should be the label of the entry you select.
a
(a: 12.3 nM, b: 5.5 nM)

---

- targetUnderTest: recombinant human NF-kappaB-inducing kinase (NIK/MAP3K14) (Homo sapiens, UniProt Q99558)
- protocolDescription: Biological Assay B: inhibition of auto-phosphorylation of recombinant human NIK/MAP3K14 (AlphaScreen), performed at 2 locations
- Type: biochemical
- testConditions: location 2; AlphaScreen auto-phosphorylation; averaged values; read-out: Assay B location 2 IC50
pIC50: −log10 of the molar value.
valueType: pIC50

Below, each entry is followed by its recorded pIC50 result.
>>> quantitativeresult("COc1cc(C(=O)NC2CCOCC2)c(Cl)cc1Nc1nccc(-c2cnc3c(c2)C(C)(CO)CN3)n1 (centres unmarked)")
8.80
>>> quantitativeresult("COCC(C)(C)CNc1cc(OC)c(Nc2nccc(-c3cnc4c(c3)C(C)(CO)CN4)n2)cc1F (centres unmarked)")
8.14

1: COc1ccc(C)c(Nc2nccc(-c3cnc4c(c3)C(C)(CO)CN4)n2)c1 (centres unmarked)
2: CC1(CO)CNc2ncc(-c3ccnc(Nc4ccccc4OC4CCOCC4)n3)cc21 (centres unmarked)
3: COc1cc(-c2cnn(C)c2)ccc1Nc1nccc(-c2cnc3c(c2)C(C)(CO)CN3)n1 (centres unmarked)
# rank by pIC50, ascending (min first) // ordering of labels required in reply
2, 3, 1
(2: 7.65, 3: 8.05, 1: 8.60)
